# Test target: Induced myeloid leukemia cell differentiation protein Mcl-1 (Homo sapiens)
# Sequence (Q07820 whole entry): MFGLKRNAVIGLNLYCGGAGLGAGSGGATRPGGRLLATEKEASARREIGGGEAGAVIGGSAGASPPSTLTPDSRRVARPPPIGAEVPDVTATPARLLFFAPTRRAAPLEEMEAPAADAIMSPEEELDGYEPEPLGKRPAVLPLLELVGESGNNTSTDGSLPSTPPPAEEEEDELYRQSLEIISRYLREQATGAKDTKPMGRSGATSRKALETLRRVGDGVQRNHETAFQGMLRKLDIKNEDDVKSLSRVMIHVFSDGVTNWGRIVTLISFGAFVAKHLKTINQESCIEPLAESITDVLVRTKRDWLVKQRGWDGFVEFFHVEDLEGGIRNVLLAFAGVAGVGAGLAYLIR
# Format: functional
Activity calls are given as the source filed them.
Measurement label: IC50

Sample records with IC50:
- Compound: "O=C(O)c1ccccc1-c1ccc(/C=c2\\sc3nc4cc(Br)cnc4n3c2=O)o1"
  IC50: "3.32 µM (active)"
- Compound: "Cc1cc(C(F)F)n2nc(C(=O)Nc3sc4c(c3C(N)=O)CCC4)nc2n1"
  IC50: "40 µM (active)"
- Compound: "Cc1cccc(NC2=C(NC(=O)c3ccccc3)C(=O)c3ccccc3C2=O)c1"
  IC50: "2.86 µM (active)"
- Compound: "O=c1cc(-c2ccccc2Cl)oc2c(NS(=O)(=O)c3cc(Cl)cc(Cl)c3O)ccc(O)c12"
  IC50: "3.4 µM (active)"
- Compound: "COc1cc(/C=N/Nc2nc(C)nc3c2cnn3-c2ccccc2)ccc1O"
  IC50: "9.67 µM (active)"

Ask: Assign IC50 to the following record: O=C(CN1C(=O)/C(=C2\SC(=S)N(C3CCS(=O)(=O)C3)C2=O)c2ccccc21)Nc1ccc(F)cc1 (configuration not stated)
Reply: 3.55 µM (active)

Ask: Assign IC50 to the following record: O=C1NC(=S)N(c2ccc(F)cc2)C(=O)/C1=C\c1ccoc1
Reply: 1.53 µM (active)

###

# Test target: Aminopeptidase N (Plasmodium falciparum FcB1/Columbia, UniProt O96935)
# Sequence (O96935 whole entry): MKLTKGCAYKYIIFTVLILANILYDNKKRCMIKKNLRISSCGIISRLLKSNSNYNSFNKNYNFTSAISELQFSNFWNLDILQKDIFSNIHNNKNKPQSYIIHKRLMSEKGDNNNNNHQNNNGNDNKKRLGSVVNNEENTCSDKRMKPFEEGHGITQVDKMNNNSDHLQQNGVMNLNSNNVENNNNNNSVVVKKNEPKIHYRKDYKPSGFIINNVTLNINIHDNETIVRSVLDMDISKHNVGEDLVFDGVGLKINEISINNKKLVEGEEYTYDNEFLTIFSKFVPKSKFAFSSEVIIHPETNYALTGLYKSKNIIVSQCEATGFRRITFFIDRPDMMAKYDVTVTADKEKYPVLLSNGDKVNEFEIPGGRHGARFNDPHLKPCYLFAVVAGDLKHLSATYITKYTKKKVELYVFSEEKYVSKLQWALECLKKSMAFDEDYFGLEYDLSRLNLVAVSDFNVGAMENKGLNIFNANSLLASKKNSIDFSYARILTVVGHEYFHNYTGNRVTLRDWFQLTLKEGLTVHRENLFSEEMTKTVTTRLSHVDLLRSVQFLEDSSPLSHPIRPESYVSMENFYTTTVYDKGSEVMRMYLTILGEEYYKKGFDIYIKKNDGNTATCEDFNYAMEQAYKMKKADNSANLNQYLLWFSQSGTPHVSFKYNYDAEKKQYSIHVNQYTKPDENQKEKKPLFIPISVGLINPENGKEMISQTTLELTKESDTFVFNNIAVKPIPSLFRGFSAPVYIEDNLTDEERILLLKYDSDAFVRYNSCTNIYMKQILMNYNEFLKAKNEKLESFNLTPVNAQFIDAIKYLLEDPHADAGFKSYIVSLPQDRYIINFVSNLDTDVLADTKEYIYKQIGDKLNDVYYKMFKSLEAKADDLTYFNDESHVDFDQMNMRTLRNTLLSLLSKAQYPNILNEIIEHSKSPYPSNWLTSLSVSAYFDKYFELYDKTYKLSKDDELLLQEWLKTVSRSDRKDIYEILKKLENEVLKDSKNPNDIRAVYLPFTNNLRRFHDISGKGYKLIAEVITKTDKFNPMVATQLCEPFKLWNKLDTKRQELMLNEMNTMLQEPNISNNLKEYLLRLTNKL
# Experiment: P. falciparum M1AAP inhibitors, biochemical, fluorogenic H-Leu-NHMec substrate, 1536-well (AID 1445)
# Set-up: species or system Plasmodium falciparum 3D7, 3D7
Active and inactive are the calls of the source. No rule for the calls is given here.
Below, each entry is listed alongside its reported IC50.

- Smiles str: "O=c1c(C(c2ccc([N+](=O)[O-])cc2)c2c(O)oc3ccccc3c2=O)c(O)oc2ccccc12"
  IC50: "34 µM (active)"

Ask: Assign IC50 to the following record: Cc1ccc(/C=C2\SC(=S)N(c3c(C)n(C)n(-c4ccccc4)c3=O)C2=O)cc1
Reply: 120 µM (active)

Ask: Assign IC50 to the following record: O=c1cc(-c2ccccc2Cl)oc2c(NS(=O)(=O)c3cc(Cl)cc(Cl)c3O)ccc(O)c12
Reply: 51.6 µM (active)

Ask: Assign IC50 to the following record: Oc1[nH]c2ccc(Br)cc2c1N=Nc1nn[nH]n1
Reply: 26.5 µM (active)
